tested on: Caco-2 cell monolayers; experiment: Caco-assay: transport across Caco-2 cell monolayers; format: in vitro ADME, human; details: first series, third value
Structures can show the parent of a compound that is named as a salt.
Caco-2 assay % basolateral overview
Write the number in % without appending the unit.

// solved cases for Caco-2 assay % basolateral follow
| COMPOUND | VALUE UNIT | Caco-2 assay % basolateral |
| --- | --- | --- |
| N=C(N)Nc1ccc(CNC(=O)CNC(=O)C(CO)NS(=O)(=O)Cc2cccc(Cl)c2)cc1 (stereo not drawn) [WX-C318, hydrochloride] | % | 4.5 |
| C[C@@H](C(=O)NCc1ccc(NC(=N)N)cc1)N(C)C(=O)[C@@H](CO)NS(=O)(=O)Cc1ccc(Cl)cc1 | % | 5.2 |
| N=C(N)Nc1ccc(CNC(=O)CNC(=O)C(CO)NS(=O)(=O)Cc2ccc(Cl)cc2)cc1 (stereo not drawn) [WX-C340, hydrochloride] | % | 0.1 |
| N=C(N)Nc1ccc(CNC(=O)CNC(=O)[C@@H](CO)NS(=O)(=O)Cc2ccccc2)cc1 [WX-508, hydrochloride] | % | 0.7 |
| N=C(N)Nc1ccc(CNC(=O)CNC(=O)C(CO)NS(=O)(=O)Cc2cccc([N+](=O)[O-])c2)cc1 (stereo not drawn) [WX-C316, hydrochloride] | % | 3.4 |
| N=C(N)Nc1ccc(CNC(=O)[C@H](CCc2ccccc2)NC(=O)C(CO)NS(=O)(=O)Cc2ccccc2)cc1 (stereo partly drawn) [WX-550, hydrochloride] | % | 0.6 |

Q: In one line, give reported Caco-2 assay % basolateral of the entry CN(CC(=O)NCc1ccc(NC(=N)N)cc1)C(=O)C(CO)NS(=O)(=O)Cc1ccccc1 (stereo not drawn) .
A: 0.1

Q: Please supply the value of reported Caco-2 assay % basolateral for the item N=C(N)Nc1ccc(CNC(=O)CNC(=O)C(CO)NC(=O)Nc2cccc(C(=O)O)c2)cc1 (stereo not drawn) [WX-C324, hydrochloride]
A: 2.9

====

Examples of compounds with documented Ki follow.
target: FXa (Homo sapiens); assay: In vitro inhibition of FXa (Ki according to Dixon); type: biochemical; details: summary table
Sequence (P00742 235-488 limits assumed): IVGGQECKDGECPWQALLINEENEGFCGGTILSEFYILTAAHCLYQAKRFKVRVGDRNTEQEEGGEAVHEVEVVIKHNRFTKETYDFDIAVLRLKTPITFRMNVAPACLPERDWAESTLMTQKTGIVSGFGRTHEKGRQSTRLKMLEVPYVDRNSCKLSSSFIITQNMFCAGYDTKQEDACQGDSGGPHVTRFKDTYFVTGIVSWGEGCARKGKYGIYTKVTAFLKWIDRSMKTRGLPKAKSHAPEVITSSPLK
Sequence (P00742 41-179 partner limits assumed): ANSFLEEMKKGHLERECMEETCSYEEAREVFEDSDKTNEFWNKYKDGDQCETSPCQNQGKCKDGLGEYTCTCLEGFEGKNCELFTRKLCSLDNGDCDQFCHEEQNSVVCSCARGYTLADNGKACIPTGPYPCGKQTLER
Counter-ions that a name gives are not always drawn.

| COMPOUND | Ki |
| --- | --- |
| CN(CC(=O)NCc1ccc(NC(=N)N)cc1)C(=O)C(CO)NS(=O)(=O)Cc1ccccc1 (centres unmarked) [WX-538] | > 100 µM |

Let us examine a further case.
Q: Please report Ki for the following compound: N=C(N)Nc1ccc(CNC(=O)[C@H](CCc2ccccc2)NC(=O)C(CO)NS(=O)(=O)Cc2ccccc2)cc1 (some centres unmarked) [WX-550, hydrochloride]
A: > 100 µM

====

Tested on: Caco-2 cell monolayers
Experiment: Caco-assay: transport across Caco-2 cell monolayers
Format: in vitro ADME, human
Settings: second series, first value
Description: Transport of the compounds WX-508, WXC-316, WXC-318, WXC-324, WXC-340, WX-532, WX-538, WX-550 and WX-582 across Caco-2 cell monolayers was investigated. In this experiment the bioavailability of the said compounds after oral administration was assessed. […] The transepithelial electric resistance (TEER) is measured before and after equilibration using a Milicell ERS meter which was connected to a pair of electrodes in order to ensure the integrity of the monolayers formed on the filters. […]
Structures can show the parent of a compound that is named as a salt.
Below, each entry is listed alongside its reported Caco-2 assay % basolateral.
Field format: number, assumed %, no unit text.

Before answering, review these 5 worked examples.
| COMPOUND | Caco-2 assay % basolateral, % |
| --- | --- |
| CN(CC(=O)NCc1ccc(NC(=N)N)cc1)C(=O)C(CO)NS(=O)(=O)Cc1ccccc1 (stereo not drawn) | 0.1 |
| C[C@@H](C(=O)NCc1ccc(NC(=N)N)cc1)N(C)C(=O)[C@@H](CO)NS(=O)(=O)Cc1ccc(Cl)cc1 | 0.4 |
| N=C(N)Nc1ccc(CNC(=O)CNC(=O)C(CO)NS(=O)(=O)Cc2cccc([N+](=O)[O-])c2)cc1 (stereo not drawn) [WX-C316, hydrochloride] | 0.1 |
| N=C(N)Nc1ccc(CNC(=O)CNC(=O)C(CO)NS(=O)(=O)Cc2cccc(Cl)c2)cc1 (stereo not drawn) [WX-C318, hydrochloride] | 0.2 |
| N=C(N)Nc1ccc(CNC(=O)CNC(=O)C(CO)NS(=O)(=O)Cc2ccc(Cl)cc2)cc1 (stereo not drawn) [WX-C340, hydrochloride] | 2.3 |

Pending compound:
Q: Output Caco-2 assay % basolateral of N=C(N)Nc1ccc(CNC(=O)CNC(=O)C(CO)NC(=O)Nc2cccc(C(=O)O)c2)cc1 (stereo not drawn) [WX-C324, hydrochloride]
A: 0
